- Test system: Saccharomyces cerevisiae BY4741 SeMeCo community
- ASSAY_NAME: mean cell size (pixel area) (pixels); higher = larger cells
- CONDITIONS: 10 µM; 24 h; SM minimal medium
Structures can show the parent of a compound that is named as a salt.
Quick reference: mean cell size of the listed items.
ASSAY_METRIC: mean cell size

[[record]]
molecule = "CCN[C@@H]1C[C@H](N)[C@@H](O[C@H]2OC(CN)=CC[C@H]2N)[C@H](O)[C@H]1O[C@H]1OC[C@](C)(O)[C@H](NC)[C@H]1O [Netilmicin Sulfate]"
test_target = "Saccharomyces cerevisiae BY4741 SeMeCo community"
assay_metric = "mean cell size"
val = 12.1

[[record]]
molecule = "CN1CCN2c3ncccc3Cc3ccccc3C2C1 (stereo not given)"
test_target = "Saccharomyces cerevisiae BY4741 SeMeCo community"
assay_metric = "mean cell size"
val = 12.4

[[record]]
molecule = "Cc1noc(NS(=O)(=O)c2ccc(N)cc2)c1C"
test_target = "Saccharomyces cerevisiae BY4741 SeMeCo community"
assay_metric = "mean cell size"
val = 12.4

[[record]]
molecule = "CN1CCOC(c2ccccc2)c2ccccc2C1 (stereo not given) [Nefopam HCl]"
test_target = "Saccharomyces cerevisiae BY4741 SeMeCo community"
assay_metric = "mean cell size"
val = 12.1

[[record]]
molecule = "CC[C@@H]1/C=C(\\C)C[C@H](C)C[C@H](OC)[C@H]2O[C@@](O)(C(=O)C(=O)N3CCCC[C@H]3C(=O)O[C@H](/C(C)=C/[C@@H]3CC[C@H](Cl)[C@H](OC)C3)[C@H](C)[C@@H](O)CC1=O)[C@H](C)C[C@@H]2OC"
test_target = "Saccharomyces cerevisiae BY4741 SeMeCo community"
assay_metric = "mean cell size"
val = 11.6

[[record]]
molecule = "COc1cc(O)c(C(=O)Nc2nc(C(=O)NCCN(C(C)C)C(C)C)cs2)cc1OC [Acotiamide]"
test_target = "Saccharomyces cerevisiae BY4741 SeMeCo community"
assay_metric = "mean cell size"
val = 12.1

[[record]]
molecule = "CN1CCCN=C1/C=C/c1cccc(O)c1 [Oxantel Pamoate]"
test_target = "Saccharomyces cerevisiae BY4741 SeMeCo community"
assay_metric = "mean cell size"
val = 12.6

[[record]]
molecule = "N=C(N)NC(=O)c1nc(Cl)c(N)nc1N [Amiloride HCl dihydrate]"
test_target = "Saccharomyces cerevisiae BY4741 SeMeCo community"
assay_metric = "mean cell size"
val = 12.1

[[record]]
molecule = "CNS(=O)(=O)CCc1ccc2[nH]cc(C3CCN(C)CC3)c2c1 [Naratriptan HCl]"
test_target = "Saccharomyces cerevisiae BY4741 SeMeCo community"
assay_metric = "mean cell size"
val = 12.4

[[record]]
molecule = "CC/C=C(\\C(=O)N[C@@H]1C(=O)N2C(C(=O)OCOC(=O)C(C)(C)C)=C(COC(N)=O)CS[C@H]12)c1csc(N)n1 [Cefcapene Pivoxil Hydrochloride]"
test_target = "Saccharomyces cerevisiae BY4741 SeMeCo community"
assay_metric = "mean cell size"
val = 12.3

[[record]]
molecule = "CN1C2CCCC1CC(NC(=O)c1nn(C)c3ccccc13)C2 (stereo not given)"
test_target = "Saccharomyces cerevisiae BY4741 SeMeCo community"
assay_metric = "mean cell size"
val = 12.3

[[record]]
molecule = "COc1ccc(Cc2cnc(N)nc2N)cc1OC"
test_target = "Saccharomyces cerevisiae BY4741 SeMeCo community"
assay_metric = "mean cell size"
val = 12.3

[[record]]
molecule = "O=c1ccc2cc(O)c(O)cc2o1"
test_target = "Saccharomyces cerevisiae BY4741 SeMeCo community"
assay_metric = "mean cell size"
val = 12.7

[[record]]
molecule = "NC[C@H]1O[C@H](O[C@H]2[C@H](O)[C@@H](O[C@H]3O[C@H](CO)[C@@H](O)[C@H](N)[C@H]3O)[C@H](N)C[C@@H]2N)[C@H](O)[C@@H](O)[C@@H]1O [Kanamycin sulfate]"
test_target = "Saccharomyces cerevisiae BY4741 SeMeCo community"
assay_metric = "mean cell size"
val = 11.9

[[record]]
molecule = "CC(C)(O/N=C(\\C(=O)N[C@@H]1C(=O)N2C(C(=O)[O-])=C(C[n+]3ccccc3)CS[C@H]12)c1csc(N)n1)C(=O)O"
test_target = "Saccharomyces cerevisiae BY4741 SeMeCo community"
assay_metric = "mean cell size"
val = 12

